target_or_system: Kappa-type opioid receptor (Homo sapiens)
measurement_protocol: Agonist activity at human kappa opioid receptor expressed in HEK293 cells assessed as induction of intracellular calcium release by FLIPR assay
Type: functional, cell-based
Activity calls are given as the source filed them. The calls are words filed in the database; no cut-off is given here.
test_readout: Activity

smiles_string	test_readout	observed_result
O=C(N[C@@H]1CC[C@@]2(O)[C@H]3Cc4ccc(O)c5c4[C@@]2(CCN3CC2CC2)[C@H]1O5)c1cc2ccccc2o1	Activity	Active
O=C(N[C@@H]1CC[C@@]2(O)[C@H]3Cc4ccc(O)c5c4[C@@]2(CCN3CC2CC2)[C@H]1O5)c1cc2ccccc2[nH]1	Activity	Active
O=C(N[C@@H]1CC[C@@]2(O)[C@H]3Cc4ccc(O)c5c4[C@@]2(CCN3CC2CC2)[C@H]1O5)c1cc2ccccc2s1	Activity	Active
Cn1c(C(=O)N[C@@H]2CC[C@@]3(O)[C@H]4Cc5ccc(O)c6c5[C@@]3(CCN4CC3CC3)[C@H]2O6)cc2ccccc21	Activity	Active
